target: Vasopressin V1 receptor (Rattus norvegicus) (UniProt P48974+P30560); assay: Effective dose was determined for Vasopressin V1 receptor antagonistic activity in vivo in anesthetized rats; assay type: functional, organism-based
Sequence (P30560 whole entry, looked up): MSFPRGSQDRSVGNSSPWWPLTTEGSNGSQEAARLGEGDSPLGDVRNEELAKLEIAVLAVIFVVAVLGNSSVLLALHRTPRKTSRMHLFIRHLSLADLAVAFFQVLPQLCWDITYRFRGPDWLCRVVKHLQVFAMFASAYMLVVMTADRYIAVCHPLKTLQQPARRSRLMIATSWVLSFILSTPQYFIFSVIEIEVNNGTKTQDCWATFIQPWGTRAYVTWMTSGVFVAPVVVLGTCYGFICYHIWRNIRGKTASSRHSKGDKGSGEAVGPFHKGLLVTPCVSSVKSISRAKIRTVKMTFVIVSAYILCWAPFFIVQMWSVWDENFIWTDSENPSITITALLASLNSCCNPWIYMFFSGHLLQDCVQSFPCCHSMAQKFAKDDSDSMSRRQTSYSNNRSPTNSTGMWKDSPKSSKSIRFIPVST
Sequence (P48974 whole entry, looked up): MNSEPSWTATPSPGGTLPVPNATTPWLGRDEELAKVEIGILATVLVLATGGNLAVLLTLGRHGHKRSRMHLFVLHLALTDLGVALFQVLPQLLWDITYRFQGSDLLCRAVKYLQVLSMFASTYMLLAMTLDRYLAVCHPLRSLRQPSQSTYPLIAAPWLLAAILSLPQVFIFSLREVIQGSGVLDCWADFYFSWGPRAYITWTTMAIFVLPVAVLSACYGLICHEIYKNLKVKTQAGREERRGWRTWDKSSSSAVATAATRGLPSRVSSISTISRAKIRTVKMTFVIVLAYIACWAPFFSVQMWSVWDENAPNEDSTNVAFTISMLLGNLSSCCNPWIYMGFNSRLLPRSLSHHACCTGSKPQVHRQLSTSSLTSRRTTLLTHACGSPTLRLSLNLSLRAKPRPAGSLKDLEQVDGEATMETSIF
Recorded Effective dose values for a group of molecules are listed next.
metric.name: Effective dose (nM/kg)

| structure | target.or.test.system | metric.name | data.value |
| --- | --- | --- | --- |
| COc1ccc(C[C@@H](NC(=O)Cc2ccccc2)C(=O)N[C@@H](Cc2ccccc2)C(=O)N[C@@H](CCC(N)=O)C(=O)N[C@@H](CC(N)=O)C(=O)N[C@@H](CCCCN)C(=O)N2CCC[C@@H]2C(=O)N[C@@H](CCCN=C(N)N)C(N)=O)cc1 | Vasopressin V1 receptor (Rattus norvegicus) (UniProt P48974+P30560) | Effective dose | 0.083 |
| CCOc1ccc(C[C@@H](NC(=O)CC23C[C@H]4C[C@@H](C2)C[C@@H](C3)C4)C(=O)N[C@@H](Cc2ccccc2)C(=O)N[C@H](C(=O)N[C@@H](CC(N)=O)C(=O)NCCCC(=O)N2CCC[C@@H]2C(=O)N[C@@H](CCCN=C(N)N)C(=O)N[C@@H](CCCN=C(N)N)C(N)=O)C(C)C)cc1 | Vasopressin V1 receptor (Rattus norvegicus) (UniProt P48974+P30560) | Effective dose | 1.2 |
| CCOc1ccc(C[C@@H](NC(=O)CC23CC4CC(CC(C4)C2)C3)C(=O)N[C@@H](Cc2ccccc2)C(=O)N[C@H](C(=O)N[C@@H](CC(N)=O)C(=O)N[C@@H](CCCN=C(N)N)C(=O)N2CCC[C@@H]2C(=O)N[C@@H](CCCN=C(N)N)C(=O)N[C@@H](CCCN=C(N)N)C(N)=O)C(C)C)cc1 | Vasopressin V1 receptor (Rattus norvegicus) (UniProt P48974+P30560) | Effective dose | 0.5 |

---

target: Vasopressin V2 receptor (Rattus norvegicus) (UniProt Q00788); test: Effective dose was determined for Vasopressin V2 receptor antagonistic activity in vivo in anesthetized rats; type: functional, organism-based
Sequence (Q00788 whole entry): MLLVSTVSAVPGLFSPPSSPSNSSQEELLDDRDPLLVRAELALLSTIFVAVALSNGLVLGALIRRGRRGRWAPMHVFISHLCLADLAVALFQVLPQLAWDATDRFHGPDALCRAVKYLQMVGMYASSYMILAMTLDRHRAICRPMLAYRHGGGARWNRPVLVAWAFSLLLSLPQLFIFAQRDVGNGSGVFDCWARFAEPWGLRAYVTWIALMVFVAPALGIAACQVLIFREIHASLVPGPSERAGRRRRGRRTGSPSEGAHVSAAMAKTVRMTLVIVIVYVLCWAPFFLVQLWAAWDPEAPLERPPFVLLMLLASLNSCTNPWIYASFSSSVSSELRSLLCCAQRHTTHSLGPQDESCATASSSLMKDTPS
Recorded Effective dose by entry

| structure | unit.info | Effective dose |
| --- | --- | --- |
| CCOc1ccc(C[C@@H](NC(=O)Cc2ccccc2)C(=O)N[C@@H](Cc2ccccc2)C(=O)N[C@@H](CCC(N)=O)C(=O)N[C@@H](CC(N)=O)C(=O)N[C@@H](CCCCN)C(=O)N2CCC[C@@H]2C(=O)N[C@@H](CCCN=C(N)N)C(N)=O)cc1 | nM/kg | 40 |
| CCOc1ccc(C[C@@H](NC(=O)CC23CC4CC(CC(C4)C2)C3)C(=O)N[C@@H](Cc2ccccc2)C(=O)N[C@H](C(=O)N[C@@H](CC(N)=O)C(=O)N[C@@H](CCCCN)C(=O)N2CCC[C@@H]2C(=O)N[C@@H](CCCN=C(N)N)C(N)=O)C(C)C)cc1 | nM/kg | 1.1 |
| CCOc1ccc(C[C@@H](NC(=O)CC(C)(C)C)C(=O)N[C@@H](Cc2ccccc2)C(=O)N[C@H](C(=O)N[C@@H](CC(N)=O)C(=O)N[C@@H](CCCN=C(N)N)C(=O)N(C)[C@@H](C)C(=O)N[C@@H](CCCN=C(N)N)C(N)=O)C(C)C)cc1 | nM/kg | 16 |
